GI50 listing for selected molecules.
tested on: NCI/ADR-RES ovarian; experiment: NCI tumour cell line growth inhibition, 48 h

Reference set (4 entries):
- COC(=O)c1c2c(c[n+]([O-])c1C)C(=O)C(NCc1ccccc1)=CC2=O: 0.302 µM
- C[CH2][Sn]1([CH2]C)[O]C2C(O)OC(CO)C(O)C2[O]1 (configuration not stated): > 100 µM
- COc1c(Nc2ncc(Cl)c(N[C@@H]3[C@H]4C=CC(C4)[C@@H]3C(N)=O)n2)ccc2c1CC[C@@H](N1CCOCC1)CC2: 4.58 µM
- Clc1ccc(N/N=C/c2ccccn2)nc1: 0.383 µM

Retrieve GI50 measured for C=C1CCCC(C)(C)[C@@H]1CC/C(C)=C/Cn1c2cccc(=O)c-2nc2ccccc21 and print it.
4.23 µM

Retrieve GI50 measured for NC(=O)c1cccc(N)c1 and print it.
> 100 µM

Retrieve GI50 measured for NC(=O)c1ncn(C2OC(CO)C(O)C2O)n1 (configuration not stated) and print it.
54.6 µM

====

tested on: SK-MEL-28 melanoma; assay: NCI tumour cell line growth inhibition, 48 h
Observation Type: TGI

Reference set (5 entries):
• Cc1c(NC(=O)CCCl)c(=O)oc2c(C)c3occc(=O)c3cc12 = > 100 µM
• C[C@]1(O)CC(=O)c2c(c(-c3ccc4cc5c(c(O)c4c3O)C(=O)C[C@@](C)(O)C5)c3cccc(O)c3c2O)C1 = 23.2 µM
• Cc1ccc(/C=C/C(=O)c2sc(C(N)=S)nc2C)cc1 = > 100 µM
• Fc1cc(C2=C[C@H](c3ccc4c(c3)OCO4)NC(=S)N2)c(Cl)cc1Cl = > 100 µM
• C=C1C(=O)O[C@H]2[C@H]1CC/C(COC(=O)NCc1c[nH]c3ccc(OC)cc13)=C\CC[C@@]1(C)O[C@@H]21 = 3.34 µM

Retrieve TGI measured for CCCCCCCCCCCCCCCCCC(=O)[O][Sn]([CH2]CCC)([CH2]CCC)[CH2]CCC and print it.
0.31 µM

Retrieve TGI measured for O=CC(O)C(O)C(O)COc1cc(CO)cc2c1C(=O)c1ccccc1C2=O (configuration not stated) and print it.
> 100 µM

Retrieve TGI measured for Cn1ccnc1SC(F)(F)c1nc2ccccc2o1 and print it.
> 100 µM

====

tested on: MALME-3M melanoma; assay: NCI tumour cell line growth inhibition, 48 h
TGI listing for selected molecules.

• CCC1(O)C(=O)OCc2c1cc1n(c2=O)Cc2c-1nc1ccccc1c2OC (stereo not given) = 25.3 µM
• Cc1cc(C)c2c(=O)n(CN3CCN(c4ccccc4)CC3)sc2n1 = > 100 µM
• CC(Br)C(=O)c1ccc2cc(Br)c3ccccc3c2c1 (stereo not given) = 28.8 µM
• CC(/C=C/C=C/C=C/C=C/C=C/C(O)=C1/C(=O)C(CCC(=O)O)N(C)C1=O)=C\C(C)C(OC1CC(O)C(O)C(C)O1)C(C)C (stereo not given) = 8.4 µM
• COC1=C(C)C(=O)C2C(C1=O)C(c1ccc(OC)c(OC)c1)[C@H]2C (stereo not given in full) = > 100 µM

Retrieve TGI measured for COc1ccc(Nc2nc(NCc3ccccc3)c3ccccc3n2)cc1 and print it.
3.69 µM

Retrieve TGI measured for CC(C)=CCC/C(C)=C/CC/C(C)=C/[C@@H]1[C@@H](CO)[C@]1(C)CC/C=C(\C)CCC=C(C)C and print it.
> 100 µM

Retrieve TGI measured for COc1cc(O)c2c(=O)c3ccccc3n(C)c2c1 and print it.
> 100 µM

Retrieve TGI measured for CC(=O)N(/N=C\c1ccc([N+](=O)[O-])cc1)c1ccccc1 and print it.
> 100 µM

Retrieve TGI measured for CC(=O)NC(ON1C(=O)COc2ccccc21)C(Cl)(Cl)Cl (stereo not given) and print it.
> 100 µM

====

tested on: KM12 colon; assay: NCI tumour cell line growth inhibition, 48 h
Observation Type: TGI

Retrieve TGI measured for COC(=O)C1C(=O)O[C@@H](c2ccc(OC)cc2)C1C(=O)OC (stereo partly drawn) and print it.
> 100 µM

Retrieve TGI measured for CSc1sc(C)cc1-c1nsc(=O)o1 and print it.
> 100 µM

Retrieve TGI measured for S=C(Nc1ccc(-c2nc3ccccc3s2)cc1)Nc1ccccn1 and print it.
> 70.8 µM

Retrieve TGI measured for CCOC(=O)[C@H](Cc1ccccc1)NC(=O)c1nc[nH]c1[N+](=O)[O-] and print it.
> 100 µM

Retrieve TGI measured for COc1ccc(Nc2nc(NCc3ccccc3)c3ccccc3n2)cc1 and print it.
13.8 µM

Retrieve TGI measured for Cc1ccc(NC(=O)C2C(=O)C(=O)N(c3ccc(C)cc3)C2=O)cc1 (stereo not drawn) and print it.
> 100 µM

Retrieve TGI measured for O=C(c1ccsc1)c1cc2c(s1)C(=O)c1ccsc1C2=O and print it.
0.434 µM

Retrieve TGI measured for C[C@]1(O)CC(=O)c2c(c(-c3ccc4cc5c(c(O)c4c3O)C(=O)C[C@@](C)(O)C5)c3cccc(O)c3c2O)C1 and print it.
11.7 µM

Retrieve TGI measured for O=[N+]([O-])c1nccn1CCCN=c1c2ccccc2n(O)c2ccccc12 and print it.
> 100 µM

Retrieve TGI measured for O=C(CN1CCOCC1)c1ccc2[nH]c(=O)oc2c1 and print it.
> 100 µM

Retrieve TGI measured for S=C1CNC(=S)CN1 and print it.
> 100 µM

Retrieve TGI measured for NC(=S)SC1=NNC2(C(=O)N1)c1ccccc1-c1ccccc12 and print it.
> 10 µM

Retrieve TGI measured for O=[n+]1cnn([O-])c2ccccc21 and print it.
40.4 µM

Retrieve TGI measured for COc1cccc(N=N/C(=N/NC(=O)c2cc(Cl)ccc2O)c2ccc(N(CCC#N)CCC#N)cc2C)c1 and print it.
> 100 µM

Retrieve TGI measured for C[C@@]12CCC[C@@](C)(C(=O)O)C1CC[C@]13C=C(CO)[C@](O)(CCC12)C3 (stereo partly drawn) and print it.
> 100 µM

Retrieve TGI measured for c1ccc2c(c1)nnn1c3cnccc3nc21 and print it.
64.8 µM

Retrieve TGI measured for Nc1cccc(-c2nc3sccn3c2-c2ccnc(NCCCNS(=O)(=O)c3ccc(C(F)(F)F)cc3)n2)c1 and print it.
13.8 µM

Retrieve TGI measured for CC1=C(C)C(=O)c2c(cc3c4ccccc4ccn23)C1=O and print it.
> 100 µM

Retrieve TGI measured for O=C(COC(c1ccc(F)cc1)c1ccc(F)cc1)N1CCN(CCCc2ccccc2)CC1 and print it.
15.9 µM

Retrieve TGI measured for COc1ccc(Cc2nc3cc(Cl)ccc3o2)cc1 and print it.
> 100 µM

Retrieve TGI measured for CCCCCCCCCCCCCCCCCC(=O)[O][Sn]([CH2]CCC)([CH2]CCC)[CH2]CCC and print it.
0.266 µM

====

tested on: HOP-92 NSCLC; test: NCI tumour cell line growth inhibition, 48 h; in the data active = GI50 below about 0.43 µM; inactive = the rest
Can you answer with just one of these options? label 1 = active, label 0 = inactive

• O=C(/C=C/c1ccccc1O)c1ccccc1 = label 0
• Nc1nn(C(=O)Nc2ccc(Cc3ccccc3)cc2)c2ccc(Cl)cc12 = label 0
• Clc1ccc(N/N=C/c2ccccn2)nc1 = label 0
• S=C(Nc1ccc(-c2nc3ccccc3s2)cc1)Nc1ccccn1 = label 0
• O=C(O[C@H]1CN[C@H](C#Cc2cc3ncnc(Nc4ccc(Cc5ccccc5)cc4)c3s2)C1)N1CCOCC1 = label 0
• COc1cc(-c2nn(C)nc2-c2cc3ccccc3s2)cc(OC)c1OC = label 1

For this compound, state the assay outcome: CCOc1ccc(/C=N/Nc2cc(C)nc3ccc(Cl)cc23)cc1
label 0

====

test system: ACHN renal; assay: NCI tumour cell line growth inhibition, 48 h; in the data active = GI50 below about 0.43 µM; inactive = the rest
Can you answer with just one of these options? YES for active, NO for inactive

* C[C@@]12CCC[C@@](C)(C(=O)O)C1CC[C@]13C=C(CO)[C@](O)(CCC12)C3 (stereo not given in full) | NO
* O=C(Nc1cccnc1)c1cccs1 | NO
* COc1cc2c3c(n(CCCN=[N+]=[N-])c(=O)c2cc1OC)-c1ccc(N)cc1C3=O | YES

For this compound, state the assay outcome: COC(=O)c1c2c(c[n+]([O-])c1C)C(=O)C(NCc1ccccc1)=CC2=O
NO

====

test system: IGROV1 ovarian; assay: NCI tumour cell line growth inhibition, 48 h
Observation Type: TGI

Reference set (4 entries):
* O=c1oc2c(Br)c(O)c(Br)cc2c2ccccc12 | > 100 µM
* O=C1C(=O)c2ccccc2C=C1[N+](=O)[O-] | > 100 µM
* Cn1c(=O)c(Sc2ccccc2F)cc2cnc(NC3CCOCC3)nc21 | > 25 µM
* Nc1nc(N)nc(-c2cnc3ccccc3c2)n1 | > 100 µM

State measured TGI of the molecule CN(C)C(=O)c1nnsc1NN=O with IGROV1 ovarian.
> 100 µM

State measured TGI of the molecule CCOC(=O)/C(=C/c1cc(OC)ccc1OC)CC(=O)O with IGROV1 ovarian.
> 100 µM

State measured TGI of the molecule CCCCCCCCC(=O)CCCCCCCCC(=O)O with IGROV1 ovarian.
36.4 µM
